FYI, the data here is from ChEMBL document CHEMBL3877309.

assay: Binding affinity to synthetic biotin-labeled 30-mer GC-rich duplex DNA in pH 7.4 EDTA buffer solution in presence of 0.05 M NaCl at 25 degC by QCM sensogram analysis
assayReadout: log10(Ka) (log10 of the value in ×10⁵ /M)
Scale type: logarithmic (base 10). Underlying Ka unit: ×10⁵ /M.

Annotate the compound Cc1c2cc[n+](C)cc2c(C)c2c1[nH]c1ccc(O)cc12 with its measured log10(Ka).
1.67

Annotate the compound Cc1c2cnccc2c(C(=O)NCCCCN)c2[nH]c3ccccc3c12 with its measured log10(Ka).
-0.13

Annotate the compound CNC(=O)NCCCCC[n+]1ccc2c(C)c3c(c(C)c2c1)c1cc(O)ccc1n3C with its measured log10(Ka).
1.45

Annotate the compound CNC(=O)NCCOCC[n+]1ccc2c(C(=O)OC)c3[nH]c4ccccc4c3c(C)c2c1 with its measured log10(Ka).
1.17

Annotate the compound CNC(=O)NCCCCNC(=O)c1c2ccncc2c(C)c2c1[nH]c1ccccc12 with its measured log10(Ka).
-0.37
